System: Bacillus subtilis
Assay: Antibacterial screening, agar well diffusion
Type: cell-based
Settings: 100 μL of 3 mg/3 ml DMSO sample per 6-mm well, 37° C., 24 h
Text: As a negative control, DMSO was used.
QUANTITY NAME: Inhibition zone, BS (Bacillus subtilis) (mm)
Answers are plain numbers, in mm.

Query: Quote Inhibition zone, BS (Bacillus subtilis) reported for CC(C)C(=O)c1c(O)c2c(c3c1OC1=C(C(=O)C(C)(C)C(=O)C1(C)C)[C@@H]3C(C)C)OC1=C(C(=O)C(C)(C)C(=O)C1(C)C)[C@@H]2C(C)C [Compound 2, Myrtucommulone-E] please.
Response: 15

Query: Quote Inhibition zone, BS (Bacillus subtilis) reported for C[C@@H](O)[C@H]1C(=O)N2C(C(=O)O)=C(SCCN=CN)C[C@H]12 [Imipenem, reference compound] please.
Response: 33

Each of the following entries comes with a recorded value; kindly state Inhibition zone, BS (Bacillus subtilis) for each.
1. CC1(C)CC[C@]2(C(=O)O)CC[C@]3(C)C(=CC[C@@H]4[C@@]5(C)C[C@@H](O)[C@H](O)[C@@](C)(CO)[C@@H]5CC[C@]43C)[C@@H]2C1 [Compound 12, arjunolic acid]
2. C[C@H]1[C@H](C)CC[C@]2(C(=O)O)CC[C@]3(C)C(=CC[C@@H]4[C@@]5(C)C[C@@H](O)[C@H](O)C(C)(C)[C@@H]5CC[C@]43C)[C@H]12 [Compound 11, corosolic acid]
3. CC1(C)CC[C@]2(C(=O)O)CC[C@]3(C)C(=CC[C@@H]4[C@@]5(C)CC[C@H](O)C(C)(C)[C@@H]5CC[C@]43C)[C@@H]2C1 [Compound 14, oleanolic acid]

Response:
[15, 15, 15]

====

Test system: Escherichia coli
Test: Antibacterial screening, agar well diffusion
Format: cell-based
Settings: 100 μL of 3 mg/3 ml DMSO sample per 6-mm well, 37° C., 24 h
I'd appreciate it if you could supply Inhibition zone, EC (Escherichia coli) values for the items below.
One number for each entry, in mm.

Query: Quote Inhibition zone, EC (Escherichia coli) reported for CC(=O)c1c(O)c(C)c(O)c2c1OC1=CC(=O)C(C(C)=O)C(=O)C12C (centres unmarked) please.
Response: 11

Query: Quote Inhibition zone, EC (Escherichia coli) reported for CC1(C)CC[C@]2(CO)CC[C@]3(C)C(=CC[C@@H]4[C@@]5(C)CC[C@H](O)C(C)(C)[C@@H]5CC[C@]43C)[C@@H]2C1 please.
Response: 16

Query: Quote Inhibition zone, EC (Escherichia coli) reported for C[C@@H](O)[C@H]1C(=O)N2C(C(=O)O)=C(SCCN=CN)C[C@H]12 [Imipenem, reference compound] please.
Response: 30

Each of the following entries comes with a recorded value; kindly state Inhibition zone, EC (Escherichia coli) for each.
1. CC(C)C(=O)c1c(O)c2c(c3c1OC1=C(C(=O)C(C)(C)C(=O)C1(C)C)[C@@H]3C(C)C)OC1=C(C(=O)C(C)(C)C(=O)C1(C)C)[C@@H]2C(C)C
2. CC1(C)CC[C@]2(C(=O)O)CC[C@]3(C)C(=CC[C@@H]4[C@@]5(C)C[C@@H](O)[C@H](O)[C@@](C)(CO)[C@@H]5CC[C@]43C)[C@@H]2C1

Response:
[10, 9]
